- TEST SYSTEM: T1, P-selectin (PS-Rg) (Homo sapiens, UniProt P16109 P16109:42-321)
- T1 chain: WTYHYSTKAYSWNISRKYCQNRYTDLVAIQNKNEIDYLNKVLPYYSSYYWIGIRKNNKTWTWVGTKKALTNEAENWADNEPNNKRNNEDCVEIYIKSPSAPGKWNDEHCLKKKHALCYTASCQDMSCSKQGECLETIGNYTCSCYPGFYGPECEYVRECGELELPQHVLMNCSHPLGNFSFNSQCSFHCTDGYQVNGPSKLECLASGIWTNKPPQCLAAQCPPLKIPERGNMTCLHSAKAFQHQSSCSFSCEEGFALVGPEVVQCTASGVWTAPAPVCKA
- PROTOCOL DETAILS: filter; room temp
- CONDITION SUMMARY: tags: human IgG1 Fc fusion (provided by A. Varki); chain copies: 2; label: 32P; hairpin
pKd: −log10 of the molar value.

{"columns": ["BINDER", "pKd"],
 "data": [
  ["227 (ssDNA) DNA: CTACCTACGATCTGACTAGCCGGACATGAGCGTTACAAGGTGCTAAACGTAACGTACTTGCTTACTCTCATGTAGTTCC", 6.25]
]}
